- SYSTEM: long isoform of human D2 receptor (Homo sapiens)
- Sequence (P14416 whole entry, canonical isoform): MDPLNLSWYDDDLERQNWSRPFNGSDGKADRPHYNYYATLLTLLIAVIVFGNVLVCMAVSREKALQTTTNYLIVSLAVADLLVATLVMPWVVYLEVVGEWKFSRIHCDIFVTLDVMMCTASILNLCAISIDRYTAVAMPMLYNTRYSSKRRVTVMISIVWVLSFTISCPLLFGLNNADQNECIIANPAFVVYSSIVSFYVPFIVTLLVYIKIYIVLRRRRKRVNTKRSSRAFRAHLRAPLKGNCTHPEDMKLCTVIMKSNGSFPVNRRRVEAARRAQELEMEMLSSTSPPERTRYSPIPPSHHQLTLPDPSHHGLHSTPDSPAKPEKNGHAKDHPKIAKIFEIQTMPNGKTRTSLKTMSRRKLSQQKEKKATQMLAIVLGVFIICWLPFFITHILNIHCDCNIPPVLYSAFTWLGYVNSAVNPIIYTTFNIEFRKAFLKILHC
- PROTOCOL_SUMMARY: Arrestin Antagonist Assay (DRD2L PathHunter CHO-K1 cells, vs EC80 dopamine)
- TEST_CONDITIONS: CHO-K1, read-out: β-arrestin (antagonist mode) Imax
Catalogue of Emax values

Sample records with Emax:
INSERT INTO results (structure_notation, assay_value) VALUES
  ('Oc1cccc2ccc(OCCCCN3CCc4sccc4C3)nc12', '> 75%'),
  ('c1ccc2c(N3CCN(CCCCOc4ccc5cn[nH]c5c4)CC3)cccc2c1', '50 to 75%'),
  ('c1ccc2c(N3CCN(CCCCOc4ccc5cn[nH]c5n4)CC3)cccc2c1', '50 to 75%'),
  ('COc1cccnc1N1CCN(CCCCOc2ccc3cccc(O)c3n2)CC1', '> 75%'),
  ('Oc1cccc2ccc(OCCCCN3CCc4cc(Cl)ccc4C3)nc12', '> 75%');

Read the next record carefully.
I have this molecule here, "O=c1ccc2ccc(OCCCCN3CCc4sccc4C3)nc2[nH]1" , and I need its recorded Emax.
> 75%
